assay: chemical genetic growth profiling, strain panel (AID 1159580);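 further: tested at 20 µM; growth read once vehicle control cultures reached saturation at 30 °C; 1 = growth at the plate median or of vehicle wells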; conditions: S. cerevisiae deletion strains, growth OD, locus YBR021W, strain FUR4, active compounds read low
The whole screen tested about 5,500 compounds, of which about 2,000 (36%) were called active. Roughly 18% stayed inconclusive and do not appear here. Some of the results follow.
Readout kind: normalized growth
API doc: respond with a numeric literal and nothing else, no unit.

Task: I have this compound here, `CCc1nc(N)nc(N)c1-c1ccc(Cl)cc1` , and I need its recorded normalized growth.
Output: 1.02

Task: Continue with O=C(O)C1C(O)CCC2CN3CCc4c([nH]c5ccccc45)C3CC21 (stereo not given)
Output: 0.972

----------
Reported normalized growth values for the following molecules.
experiment: chemical genetic growth profiling, strain panel (AID 1159580); settings: S. cerevisiae deletion strains, growth OD, locus YGL086W, strain mad1, active compounds read low
In all, about 5,500 compounds went through this assay and about 2,000 (36%) were called active. Inconclusive results (about 18%) are left out. This is one part of the list.
API doc: respond with a numeric literal and nothing else, no unit.

| Molecule | Readout kind | Experimental value |
| --- | --- | --- |
| CC(=O)O[C@]1(C(C)=O)CCC2C3C=C(C)C4=CC(=O)CCC4(C)C3CCC21C (stereo partly specified) | normalized growth | 0.91 |
| N#Cc1c(Cl)c(Cl)c(Cl)c(C#N)c1Cl | normalized growth | 0.976 |
| C[CH2][Hg][S]c1ccccc1C(=O)O | normalized growth | 0.0535 |
| CCc1nc(N)nc(N)c1-c1ccc(Cl)cc1 | normalized growth | 0.994 |
| CC(=O)[C@H]1CCC2C3C[C@H](C)C4=CC(=O)CC[C@]4(C)C3[C@@H](O)C[C@@]21C (stereo partly specified) | normalized growth | 1.01 |
| CC(=O)O[C@]1(C(C)=O)CCC2C3C[C@H](C)C4=CC(=O)CC[C@]4(C)C3CC[C@@]21C (stereo partly specified) | normalized growth | 0.995 |
| CC(C)N(C(=O)CCl)c1ccccc1 | normalized growth | 1.02 |
| CCC(C(N)=O)c1ccccc1 (stereo unspecified) | normalized growth | 0.997 |

Task: I have this molecule here, CC1(C)C2CC[C@]3(C)C(C(=O)C=C4[C@@H]5C[C@@](C)(C(=O)O)CC[C@]5(C)CC[C@]43C)[C@@]2(C)CC[C@@H]1O (stereo partly specified) , and I need its recorded normalized growth.
Output: 1.01

Task: Continue with `C=CC(C)(C)c1c2c(c(O)c3c(=O)c4ccc(O)c(O)c4oc13)C=CC(C)(C)O2`
Output: 0.794

Task: Continue with `C=CC1=C(C(=O)O)N2C(=O)[C@@H](NC(=O)/C(=N/O)c3csc(N)n3)[C@H]2SC1`
Output: 0.999

----------
assay: chemical genetic growth profiling, strain panel (AID 1159580); settings: S. cerevisiae deletion strains, growth OD, locus YNL207W, strain RIO2, active compounds read low
The whole screen tested about 5,500 compounds, of which about 2,000 (36%) were called active. Another 18% or so got no clear call; they are omitted. Some of the results follow.
One threshold, 0.9, splits the recorded normalized growth values: lower ones are met, equal or higher ones are not met.

Check out these entries, answers already filled in.
| Chemical smiles | Class |
| --- | --- |
| Cc1c(Cl)cccc1NC(=S)N1CCCN(c2nc3ccc(Cl)cc3s2)CC1 | not met |
| O=C(C=C(O)c1ccc(Br)cc1)C(=O)Nc1ccccc1 | met |
| O=C(Nc1c(Br)c(C2CC2)nn1-c1ccccc1)C(Cl)(Cl)Cl | not met |

Task: is_below(normalized growth, 0.9) for `CC(C)(C)C1=NN(c2nc3ccc(Cl)cc3s2)C(=O)C1` ?
Output: met

Task: Continue with `Cc1c(Cl)cccc1NC(=S)N1CCCN(c2ccc(C(F)(F)F)cc2[N+](=O)[O-])CC1`
Output: not met

----------
Reported normalized growth values for the following molecules.
experiment: chemical genetic growth profiling, strain panel (AID 1159580);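 further: tested at 20 µM; growth read once vehicle control cultures reached saturation at 30 °C; 1 = growth at the plate median or of vehicle wells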; details: S. cerevisiae deletion strains, growth OD, locus YKL085W, strain MDH1 (second series), active compounds read low
About 2,000 (36%) of roughly 5,500 compounds were called active. About 18% were inconclusive and are not listed. The list shows a part of the results.
API doc: respond with a numeric literal and nothing else, no unit.

Some entries whose results are on file:
| Molecule | normalized growth |
| --- | --- |
| O=C1C[C@@H](c2ccccc2)Oc2cc(O)cc(O)c21 | 0.929 |
| O=C1CC(c2ccc(O)cc2)Oc2ccccc21 (stereo unspecified) | 0.923 |
| C[C@@H]1O[C@@H](O[C@H]2[C@@H](Oc3cc(O)c4c(c3)O[C@H](c3ccc(O)cc3)CC4=O)O[C@H](CO)[C@@H](O)[C@@H]2O)[C@H](O)[C@H](O)[C@H]1O | 0.996 |

Task: I have this molecule here, O=C1CC(c2ccccc2)Oc2ccccc21 (stereo unspecified) , and I need its recorded normalized growth.
Output: 0.972

Task: Continue with `O=C1C[C@@H](c2ccc(O)cc2)Oc2cc(O)cc(O)c21`
Output: 1

Task: Continue with COc1cc(OC)c2c(c1)OC(c1ccccc1)CC2=O (stereo unspecified)
Output: 0.991

----------
test: chemical genetic growth profiling, strain panel (AID 1159580);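 further: tested at 20 µM; growth read once vehicle control cultures reached saturation at 30 °C; 1 = growth at the plate median or of vehicle wells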; conditions: S. cerevisiae deletion strains, growth OD, locus YHR079C, strain IRE1 (second series)
Among all 5,500 compounds or so, about 2,000 (36%) were called active. Not shown: some 18% with an inconclusive outcome. No stated cut-off is given here; in the data, active means normalized growth mostly below about 0.91 (no sharp cut-off); inconclusive means no clear call, values can overlap the other calls; inactive means mostly above about 0.92. The list shows a part of the results.
The categories you may choose from are Y for active, N for inactive

| Molecule | Class |
| --- | --- |
| O=C1C[C@@H](c2ccccc2)Oc2cc(O)cc(O)c21 | N |
| COC(=O)C1[C@H]2C[C@H]3c4[nH]c5ccccc5c4CCN3C[C@@H]2CC[C@@H]1O (stereo partly specified) | N |
| CNc1ccccc1C(=O)N1CCc2c([nH]c3ccccc23)C1=O | N |
| CC(=O)OCC(CCn1cnc2cnc(N)nc21)COC(C)=O | N |
| OCCN(CCO)c1nc(N2CCCCC2)c2nc(N(CCO)CCO)nc(N3CCCCC3)c2n1 | N |
| O=C(O)c1cc(=O)c2cc(Cl)ccc2[nH]1 | N |
| CN=C(NC#N)NCCSCc1nc[nH]c1C | N |
| C[C@@H]1O[C@@H](O[C@H]2[C@@H](Oc3cc(O)c4c(c3)O[C@H](c3ccc(O)cc3)CC4=O)O[C@H](CO)[C@@H](O)[C@@H]2O)[C@H](O)[C@H](O)[C@H]1O | N |

Task: // return assay outcome for COC(=O)[C@@H]1C(O)CC[C@H]2CN3CCc4c([nH]c5ccccc45)[C@@H]3C[C@@H]21 (stereo partly specified)
Output: N

Task: Continue with COc1ccc(C2CC(=O)c3ccc(OC)cc3O2)cc1 (stereo unspecified)
Output: N

Task: Continue with COc1cccc2c1CCC1CC(=O)CCC21C (stereo unspecified)
Output: N

Task: Continue with `OCc1ccccc1O[C@@H]1O[C@H](CO)[C@@H](O)[C@H](O)[C@H]1O`
Output: N

Task: Continue with O=C(O)C1C(O)CCC2CN3CCc4c([nH]c5ccccc45)C3CC21 (stereo unspecified)
Output: N

Task: Continue with CC1(C)C2CC[C@]3(C)C(C(=O)C=C4[C@@H]5C[C@@](C)(C(=O)O)CC[C@]5(C)CC[C@]43C)[C@@]2(C)CC[C@@H]1O (stereo partly specified)
Output: N

Task: Continue with `C[CH2][Hg][S]c1ccccc1C(=O)O`
Output: Y

Task: Continue with COc1cc2c(cc1OC)C(=O)C(CC1CCN(Cc3ccccc3)CC1)C2 (stereo unspecified)
Output: N

Task: Continue with `O=C(O)c1cc(=O)c2ccc(Cl)cc2[nH]1`
Output: N

Task: Continue with `COC(=O)[C@H]1[C@H]2C[C@H]3c4[nH]c5ccccc5c4CCN3C[C@H]2CC[C@@H]1O`
Output: N

Task: Continue with `COc1ccc2c(c1)[C@@]1(C)CCC(=O)C[C@H]1CC2`
Output: N

Task: Continue with `O=C(O)c1ccccc1OP(=O)(O)O`
Output: N

Task: Continue with `Oc1c(Cl)c(Cl)c(Cl)c(Cl)c1Cl`
Output: Y

----------
assay: chemical genetic growth profiling, strain panel (AID 1159580);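 further: tested at 20 µM; growth read once vehicle control cultures reached saturation at 30 °C; 1 = growth at the plate median or of vehicle wells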; conditions: S. cerevisiae deletion strains, growth OD, locus YMR223W, strain ubp8, active compounds read low
Out of some 5,500 compounds screened, about 2,000 (36%) were called active. Another 18% or so got no clear call; they are omitted. This is one part of the list.
Reported normalized growth values for the following compounds.

Some entries whose results are on file:
| Compound | normalized growth |
| --- | --- |
| COc1ccc(-c2coc3c(OC)c(OC)ccc3c2=O)cc1 | 1.01 (inactive) |
| COc1ccc(-c2coc3c(OC)c(O)ccc3c2=O)cc1 | 0.943 (inactive) |
| COc1ccc2c(c1)OC[C@@H](Cc1ccc(OC)c(OC)c1)[C@H]2O | 0.976 (inactive) |

Task: I have this compound here, CC1(C)S[C@@H]2[C@H](NC(=O)[C@H](NC(=O)N3CCNC3=O)c3ccccc3)C(=O)N2C1C(=O)O (some centres not stated) , and I need its recorded normalized growth.
Output: 0.962 (inactive)

Task: Continue with `O=c1ccc2ccccc2o1`
Output: 1.04 (inactive)

Task: Continue with `C=C(C)/C=C1/C=CC(=O)C(C)=C1`
Output: 0.108 (active)

Task: Continue with COC1C(O)C(O)C(O)[C@@H](O)C1O (some centres not stated)
Output: 1 (inactive)
